system: NCI/ADR-RES; test: NCI tumour cell line growth inhibition, 48 h
Active and inactive are the calls of the source. Cut-off read from the data, not from the text of the source: active = GI50 up to about 1.1 µM and inactive = higher.
Assay readout: GI50

Look at this molecule and give its reported GI50. CCOc1ccc2nc(NC(=O)C(=O)C(C(=O)c3ccccc3-c3ccccc3)C3OC(=O)c4ccccc43)sc2c1 (stereo not given)
12.1 µM (inactive)

Entry `COc1ccc(/C=C/C=C2C(=O)NC(=S)NC2=O)cc1` : reported GI50 = ?
3.3 µM (inactive)

What value of GI50 has been recorded for this entry: `CCCCC(=O)Nc1ccc2cc(C(=O)OC)c(=O)[nH]c2n1`
> 100 µM (inactive)

For N#CC(/N=N/c1ccc(Cl)cc1)c1nc2ccccc2o1 (stereo not given) , what is its reported GI50?
> 100 µM (inactive)

Please look up its GI50: `O=C1C=C(C2=CC(=O)C(=O)c3ccccc32)c2ccccc2C1=O`
23.2 µM (inactive)

State the recorded GI50 for this entry: Cc1cc(C)c2c(c1)C(=O)C1(C2)Cc2c(ccc(C)c2C)C1=O (stereo not given)
> 100 µM (inactive)

Which GI50 reading was recorded for the molecule `CN(Cc1ccccc1)/C(=N\C#N)N(Cc1ccccc1)Cc1ccccc1` ?
19.8 µM (inactive)

I am curious: what GI50 value has been reported for `COc1ccc(-c2cc(-c3ccc(O)cc3O)c(C#N)c(=O)[nH]2)cc1` ?
19.6 µM (inactive)

Any idea what GI50 was measured for C=C1CC(Cn2cc(C)c(=O)[nH]c2=O)(c2ccc(Cl)cc2)OC1=O (stereo not given) ?
3.98 µM (inactive)

So what's the measured GI50 for this one? CCOP(=O)(OCC)C(NC(=O)OCC(Cl)(Cl)Cl)n1nnc(C(=O)OC)c1C(=O)OC (stereo not given)
> 100 µM (inactive)

* * *

tested on: UACC-257; assay: NCI tumour cell line growth inhibition, 48 h
Active and inactive are the calls of the source. No stated cut-off is given here; in the data, active = GI50 up to about 1.1 µM and inactive = higher.
Consider the following compounds; for each one, report its GI50.

Which GI50 value is on record for COc1cccc2c1C(=O)c1c(O)c3c(c(O)c1C2=O)C[C@@](O)(C(C)=O)C[C@@H]3OC1CC([N+]([O-])(Cc2ccccc2)Cc2ccccc2)C(O)C(C)O1 (stereo not given in full) ?
1.71 µM (inactive)

Need GI50 of `CCCCCCCCCCNC(=S)OC` , thanks.
23.8 µM (inactive)

Return reported GI50; argument: `CCOC(=O)/C(=C\NC[C@@H](C)O)c1nc2ccccc2[nH]1`
56 µM (inactive)

Fill in: GI50 of Cc1cccc(C)c1NC(=O)C(=O)C(C(=O)c1ccccc1-c1ccccc1)C1OC(=O)c2ccccc21 (stereo not given) is ___
22.6 µM (inactive)

What value of GI50 has been recorded for this entry: O=C1c2ccccc2C(=O)c2c(NC(=O)C(Cl)CCl)cccc21 (stereo not given)
14.7 µM (inactive)

* * *

tested on: HL-60; test: NCI tumour cell line growth inhibition, 48 h
The source made the active and inactive calls. Cut-off read from the data, not from the text of the source: active = GI50 up to about 1.1 µM and inactive = higher.
Form entry, call: pick from 1 (active), 0 (inactive)

How did this test come out for `CC1(C)C(c2ccccc2)=NN(O)c2ccccc21` ?
0

Outcome logged for `N=C(N)N/N=C/c1nc2n(c1[N+](=O)[O-])CCS2` in this assay:
0

// return assay outcome for Cc1ccc(S(=O)(=O)OC2CC(C(C)(C)C)CCC2c2ccccc2)cc1 (stereo unspecified)
0

For this molecule, state the assay outcome: `O=C1C(=Cc2ccc([N+](=O)[O-])o2)C(=O)N(CCc2ccccc2)S(=O)(=O)N1CCc1ccccc1`
0

Hi team, can someone confirm the assay call for `O=C(O)C(F)(F)C(F)(F)C(F)(F)C(F)(F)C(=O)O` ?
0

Field: outcome | Entry: `CN(C)CCN1N=Nc2cccc3cccc1c23`
0

Recorded test outcome, item C=C1CC(Cn2cc(C)c(=O)[nH]c2=O)(c2ccc(Cl)cc2)OC1=O (stereo unspecified)
1

Each molecule tested received a call. Report the one for `CC1=C(c2cc(C(=O)Nc3ccc(Cl)cc3)nc(S)n2)Sc2ccccc2N1` .
0

Please let me know the test result on file for NC1=NCCC1(c1ccccc1)c1ccccn1 (stereo unspecified) .
0

Call for entry `Cc1ccc(/C=C/C(=O)CCN(C)C)cc1` :
0

How was `N#CCc1nc(-c2cc3c(ccc4ccccc43)oc2=O)cs1` classified in this test?
0

* * *

tested on: SF-295; experiment: NCI tumour cell line growth inhibition, 48 h
Active and inactive are the calls of the source. Rule as the data show it: active = GI50 up to about 1.1 µM and inactive = higher.
Assay readout: GI50

What does the data say about its GI50? Entry: `Nc1nc2c(ncn2Cc2ccccc2CO)c(=O)[nH]1`
> 100 µM (inactive)

What value of GI50 has been recorded for this entry: `Cc1cc(N(C)C)ccc1/N=N/c1ccc2ncccc2c1`
> 100 µM (inactive)

Given the compound `Cc1[nH]c2c(C)ccc(C)c2c1CC(=O)O` , what is its reported GI50?
50.1 µM (inactive)

* * *

tested on: SF-539; test: NCI tumour cell line growth inhibition, 48 h
Calls of active or inactive are those of the source. Rule as the data show it: active = GI50 up to about 1.1 µM and inactive = higher.
Assay readout: GI50

So what does the record say about GI50 for `Cc1ccc(S(=O)(=O)NNC(=O)Nc2ccc([N+](=O)[O-])cc2)cc1` ?
50.7 µM (inactive)

Name the reported GI50 value associated with the molecule `CN(Cc1ccccc1)/C(=N\C#N)N(Cc1ccccc1)Cc1ccccc1`
19.8 µM (inactive)

GET /values?readout=GI50&item= COc1cc([C@@H]2c3cc4c(cc3C(N)C3COC(=O)[C@@H]32)OCO4)cc(OC)c1O (some centres undefined)
0.189 µM (active)

Look at this molecule and give its reported GI50. COc1cc2c(cc1OC)C1C[C@]3(CCN1CC2)C(=O)N(c1ccccc1)C(=O)N3C(C)=O (some centres undefined)
> 200 µM (inactive)

Would you mind telling me what GI50 value was observed for `COc1ccc(/C=C/C=C2C(=O)NC(=S)NC2=O)cc1` ?
4.41 µM (inactive)

What value of measured GI50 is listed for Cc1cccc(NC2=NC(=O)C(CC(=O)Nc3ccc(Cl)cc3C)S2)c1 (centres undefined) ?
> 100 µM (inactive)

Request the reported GI50 associated with `COc1ccc(-c2onc(-c3ccc([N+](=O)[O-])cc3)c2C2=NCCCN2)cc1`
> 100 µM (inactive)

GI50 lookup needed for `CN(C)CCCCN1c2ccccc2Sc2ccc(C(=O)c3ccccc3)cc21` , thanks.
3.29 µM (inactive)

So what's the measured GI50 for this one? CCOP(=O)(OCC)C(Cc1ccc(Cl)cc1)NS(=O)(=O)c1ccc(C)cc1 (centres undefined)
> 100 µM (inactive)

Can you share its GI50? I mean this molecule: `CC(C)Cc1cc(CCC(=O)Nc2ccccc2[N+](=O)[O-])nc(NC#N)n1`
> 100 µM (inactive)

Consider the molecule `O=C1/C(=C/c2ccccc2S)N=C(c2ccccc2)N1c1nc2c(Cl)cc(Cl)cc2s1` and give its measured GI50.
17 µM (inactive)

GET /values?readout=GI50&item= `Cc1nc(N)sc1C(=O)/C=C\c1ccc2c(c1)OCO2`
> 100 µM (inactive)

I have this molecule here, O=c1ccn([C@@H]2C[C@H](CO)C[S+]([O-])C2)c(=O)[nH]1 (some centres undefined) , and I need its recorded GI50.
> 100 µM (inactive)

Which measured GI50 value corresponds to `COc1ccc2c(c1)OCc1c-2oc2ccccc2c1=O` ?
40.1 µM (inactive)

Would you mind telling me what GI50 value was observed for `CCN(CC)CCCNC(=O)Cc1ccccc1Nc1c(Cl)cccc1Cl` ?
14.2 µM (inactive)

What value of GI50 has been reported for the following molecule? `N#CC(c1ccccc1)(c1ccccc1)[C@@H](c1ccccc1)[C@H](Cc1ccccc1)NS(=O)(=O)c1ccccc1`
> 100 µM (inactive)

Which GI50 value belongs to `CCOC(=O)c1ccc(NC(=O)SCCC(=O)O)cc1` ?
> 100 µM (inactive)

For the molecule `COC(=O)C(C#N)=C1c2ccccc2Oc2ccccc21` , what GI50 is on record?
75.7 µM (inactive)

Quick check: GI50 of O=C1CCCCCCCCCCC1CN1CCOCC1 (centres undefined) ?
> 100 µM (inactive)

Fill in: GI50 of `O=[N+]([O-])c1cc2c([N+](=O)[O-])cccc2o1` is ___
2.49 µM (inactive)

Looking for the measured GI50 of CCOC(=O)C1C(c2ccc(OC)cc2)c2c(nn(-c3ccccc3)c2O)CC1(C)O (centres undefined) , can you help?
92.7 µM (inactive)

# input molecule: `O=C(/C=C/c1cccc(Oc2ccccc2)c1)NCc1ccc(C(=O)NCCc2ccccc2)cc1` ; wanted: its GI50
14.8 µM (inactive)

Entry under review: `OCCN1CCN(CC/C=C2/c3ccccc3Sc3ccc(Cl)cc32)CC1` . Reported GI50?
12.9 µM (inactive)

// returns reported GI50 for input CC(C)(C)C1CCC2c3c([nH]c4ncccc34)C3C(=O)N(c4ccccc4)C(=O)C3C2C1 (centres undefined)
> 100 µM (inactive)
